tested-on: D(1A) dopamine receptor (Homo sapiens)
measurement-protocol: HTS Assay for Allosteric Agonists of the Human D1 Dopamine Receptor: Primary Screen for Antagonists (AID 488983);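 also: calcium flux response to an EC80 dopamine challenge measured with no-wash dye; nearly all actives have a fitted effect of over 65% in size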
test-settings: D1 receptor cell assay, antagonist mode, qHTS titration; series mostly up to 41.8 µM
Results filed as inconclusive are left out. Calls of active or inactive are those of the source. Calls follow the shape of the dose curve; as a rule, active = well fitted inhibition curve with a large enough effect; inconclusive = small, poorly fitted or top-dose-only effect, or effect the other way; inactive = flat fitted curve, though single readings scatter.
# valid calls are label 1 (active), label 0 (inactive); nothing else

Asked: Test call, this compound: `NCCc1c[nH]c2ccccc12`
Given back: label 0

Asked: Test call, this compound: `Cc1c(C(=O)c2cccc3ccccc23)c2cccc3c2n1[C@H](CN1CCOCC1)CO3`
Given back: label 0

Asked: Test call, this compound: `CCCN1CCO[C@@H]2c3cc(O)ccc3OC[C@H]21`
Given back: label 0

Asked: Test call, this compound: CC(C)NC(C)Cc1ccc(I)cc1 (centres undefined)
Given back: label 0

Asked: Test call, this compound: `CNCCc1c[nH]c2ccc(O)cc12`
Given back: label 0

Asked: Test call, this compound: C[N+]1(C)C2CCC1CC(OC(=O)C(CO)c1ccccc1)C2 (centres undefined)
Given back: label 0

Asked: Test call, this compound: `S=C(NC1CCCCC1)N1CCC(c2cnc[nH]2)CC1`
Given back: label 0

Asked: Test call, this compound: `O=C(O)CC[N+](=O)[O-]`
Given back: label 0

Asked: Test call, this compound: c1ccc(C2(c3ccccc3)CC2C2=NCCN2)cc1 (centres undefined)
Given back: label 0

Asked: Test call, this compound: `C[C@@H](N)Cc1cnc[nH]1`
Given back: label 0

Asked: Test call, this compound: NC(=O)CN1CC(O)CC1=O (centres undefined)
Given back: label 0

Asked: Test call, this compound: `Cc1nccc2c1[nH]c1ccccc12`
Given back: label 0

Asked: Test call, this compound: CC(Cc1ccc(O)cc1)NCC(O)c1cc(O)cc(O)c1 (centres undefined)
Given back: label 0

Asked: Test call, this compound: `CCCN1CCC[C@H](c2cccc(O)c2)C1`
Given back: label 0

Asked: Test call, this compound: C=CCN1CC[C@]23CCCCC2[C@H]1Cc1ccc(O)cc13 (some centres undefined)
Given back: label 0

Asked: Test call, this compound: `CCCN(CCC)[C@@H]1CCc2ccc(O)cc2C1`
Given back: label 1

Asked: Test call, this compound: `C#CCOC(=O)C1=CCCN(C)C1`
Given back: label 0

Asked: Test call, this compound: `O=C(O)[C@@H]1CCN1`
Given back: label 0

Asked: Test call, this compound: NC(CCP(=O)(O)O)C(=O)O (centres undefined)
Given back: label 0

Asked: Test call, this compound: `C[C@@H]1O[C@H](C[N+](C)(C)C)C[C@H]1O`
Given back: label 0

Asked: Test call, this compound: `CC[C@@H](C(N)=O)N1CCCC1=O`
Given back: label 0

Asked: Test call, this compound: `NCCc1c[nH]c2ccc(O)cc12`
Given back: label 0

Asked: Test call, this compound: O=C(Cc1ccc(Cl)c(Cl)c1)N1CCCCC1CN1CCCC1 (centres undefined)
Given back: label 0

Asked: Test call, this compound: `COC(=O)[C@@H](N)CCCN=C(N)N[N+](=O)[O-]`
Given back: label 0

The reported measurements were obtained from PubChem BioAssay (NCATS).
